assay: Glibenclamide solubility at various pH in PEG 300/ethanol/meglumine buffer (Table 2, FIG. 1); type: physicochemical; conditions: PEG 300/ethanol/meglumine buffer solution, aqueous with cosolvent or surfactant or cyclodextrin; PEG 300/Ethanol/100 mM Meglumine 40%/10%/50% (final 50 mM); nominal pH 10.0, actual pH 8.8
reported.property: solubility (µg/mL)
Entry rule: numbers only, all in µg/mL.

response.value for COc1ccc(Cl)cc1C(=O)NCCc1ccc(S(=O)(=O)NC(=O)NC2CCCCC2)cc1 [Glibenclamide] (field: solubility) = 2740

---

assay: Glibenclamide solubility at various pH in PEG 300/ethanol/meglumine buffer (Table 2, FIG. 1); assay type: physicochemical; details: PEG 300/ethanol/meglumine buffer solution, aqueous with cosolvent or surfactant or cyclodextrin; PEG 300/Ethanol/20 mM Meglumine 40%/10%/50% (final 10 mM); nominal pH 9.5, actual pH 6.4
reported.property: solubility (µg/mL)
Entry rule: numbers only, all in µg/mL.

response.value for COc1ccc(Cl)cc1C(=O)NCCc1ccc(S(=O)(=O)NC(=O)NC2CCCCC2)cc1 [Glibenclamide] (field: solubility) = 120

---

assay: Glibenclamide solubility in infusion fluids by HPLC, excess drug shaken 24 hours (Table 4); assay type: physicochemical; conditions: 0.9% NaCl infusion fluid, saline or isotonic, thermodynamic from solid; 0.9% NaCl at pH 4.5; actual pH 7.72; 24 hours ambient
reported.property: solubility at 24 h (µg/mL)
Entry rule: numbers only, all in µg/mL.

response.value for COc1ccc(Cl)cc1C(=O)NCCc1ccc(S(=O)(=O)NC(=O)NC2CCCCC2)cc1 [Glibenclamide] (field: solubility at 24 h) = 80

---

Assay: physchem
Details: pH 10.1, aqueous buffer, Solubility
Description: The solubility of glibenclamide was tested in various solutions and at various pH.
reported.property: solubility

response.value for COc1ccc(Cl)cc1C(=O)NCCc1ccc(S(=O)(=O)NC(=O)NC2CCCCC2)cc1 [Glibenclamide] (field: solubility) = 2350 µg/mL

---

assay: Glibenclamide solubility at various pH in PEG 300/ethanol/meglumine buffer (Table 2, FIG. 1); format: physicochemical; settings: aqueous with cosolvent or surfactant or cyclodextrin; PEG 300/Ethanol/100 mM Meglumine 40%/10%/50% (final 50 mM); nominal pH 8.5, actual pH 5.5
reported.property: solubility (µg/mL)
Entry rule: numbers only, all in µg/mL.

response.value for COc1ccc(Cl)cc1C(=O)NCCc1ccc(S(=O)(=O)NC(=O)NC2CCCCC2)cc1 [Glibenclamide] (field: solubility) = 100

---

experiment: physchem; conditions: pH 9.7, aqueous buffer, Solubility
reported.property: solubility (µg/mL)
Entry rule: numbers only, all in µg/mL.

response.value for COc1ccc(Cl)cc1C(=O)NCCc1ccc(S(=O)(=O)NC(=O)NC2CCCCC2)cc1 [Glibenclamide] (field: solubility) = 860

---

test: physchem; conditions: pH 7.7, aqueous with cosolvent or surfactant or cyclodextrin, Solubility
reported.property: solubility (µg/mL)
Entry rule: numbers only, all in µg/mL.

response.value for COc1ccc(Cl)cc1C(=O)NCCc1ccc(S(=O)(=O)NC(=O)NC2CCCCC2)cc1 [Glibenclamide] (field: solubility) = 10

---

experiment: Glibenclamide solubility at various pH in PEG 300/ethanol/meglumine buffer (Table 2, FIG. 1); type: physicochemical; conditions: aqueous with cosolvent or surfactant or cyclodextrin; PEG 300/Ethanol/50 mM Meglumine 40%/10%/50% (final 25 mM); nominal pH 9.5, actual pH 6.6
reported.property: solubility (µg/mL)
Entry rule: numbers only, all in µg/mL.

response.value for COc1ccc(Cl)cc1C(=O)NCCc1ccc(S(=O)(=O)NC(=O)NC2CCCCC2)cc1 [Glibenclamide] (field: solubility) = 90

---

test: Glibenclamide solubility in infusion fluids by HPLC, excess drug shaken 24 hours (Table 4); format: physicochemical; conditions: saline or isotonic, thermodynamic from solid; NaCl at pH 4.5 + PEG/EtOH/Diethanolamine 10 mM, pH 9.0 (50-fold dilution); actual pH 8.19; 24 hours ambient
reported.property: solubility at 24 h
Hi, when you answer, please include the unit after the number. Thanks!

response.value for COc1ccc(Cl)cc1C(=O)NCCc1ccc(S(=O)(=O)NC(=O)NC2CCCCC2)cc1 [Glibenclamide] (field: solubility at 24 h) = 130 µg/mL

---

experiment: Glibenclamide solubility at various pH in PEG 300/ethanol/meglumine buffer (Table 2, FIG. 1); type: physicochemical; conditions: PEG 300/ethanol/meglumine buffer solution, aqueous with cosolvent or surfactant or cyclodextrin; PEG 300/Ethanol/20 mM Meglumine 40%/10%/50% (final 10 mM); nominal pH 8.5, actual pH 5.4
reported.property: solubility (µg/mL)
Entry rule: numbers only, all in µg/mL.

response.value for COc1ccc(Cl)cc1C(=O)NCCc1ccc(S(=O)(=O)NC(=O)NC2CCCCC2)cc1 [Glibenclamide] (field: solubility) = 100

---

Assay: physchem
Conditions: pH 7.1, aqueous buffer, Solubility
Experimental: The solubility of glibenclamide was tested in various solutions and at various pH.
reported.property: solubility (µg/mL)
Entry rule: numbers only, all in µg/mL.

response.value for COc1ccc(Cl)cc1C(=O)NCCc1ccc(S(=O)(=O)NC(=O)NC2CCCCC2)cc1 [Glibenclamide] (field: solubility) = 10

---

experiment: Glibenclamide solubility at various pH in PEG 300/ethanol/meglumine buffer (Table 2, FIG. 1); format: physicochemical; conditions: aqueous with cosolvent or surfactant or cyclodextrin; 40% PEG 300, 10% ethanol, 50% water with meglumine buffer; nominal pH 9 (pH 8.8)
reported.property: solubility (µg/mL)
Entry rule: numbers only, all in µg/mL.

response.value for COc1ccc(Cl)cc1C(=O)NCCc1ccc(S(=O)(=O)NC(=O)NC2CCCCC2)cc1 [Glibenclamide] (field: solubility) = 2700

---

assay: Glibenclamide solubility at various pH in PEG 300/ethanol/meglumine buffer (Table 2, FIG. 1); format: physicochemical; conditions: aqueous with cosolvent or surfactant or cyclodextrin; PEG 300/Ethanol/50 mM Meglumine 40%/10%/50% (final 25 mM); nominal pH 8.0, actual pH 5.2
reported.property: solubility (µg/mL)
Entry rule: numbers only, all in µg/mL.

response.value for COc1ccc(Cl)cc1C(=O)NCCc1ccc(S(=O)(=O)NC(=O)NC2CCCCC2)cc1 [Glibenclamide] (field: solubility) = 160

---

assay: physchem; conditions: pH 10.7, aqueous buffer, Solubility
reported.property: solubility (µg/mL)
Entry rule: numbers only, all in µg/mL.

response.value for COc1ccc(Cl)cc1C(=O)NCCc1ccc(S(=O)(=O)NC(=O)NC2CCCCC2)cc1 [Glibenclamide] (field: solubility) = 8120

---

assay: Glibenclamide solubility at various pH in PEG 300/ethanol/meglumine buffer (Table 2, FIG. 1); type: physicochemical; settings: aqueous with cosolvent or surfactant or cyclodextrin; PEG 300/Ethanol/100 mM Meglumine 40%/10%/50% (final 50 mM); nominal pH 9.0, actual pH 6.2
reported.property: solubility

response.value for COc1ccc(Cl)cc1C(=O)NCCc1ccc(S(=O)(=O)NC(=O)NC2CCCCC2)cc1 [Glibenclamide] (field: solubility) = 100 µg/mL

---

experiment: Glibenclamide solubility in infusion fluids by HPLC, excess drug shaken 24 hours (Table 4); assay type: physicochemical; conditions: saline or isotonic, thermodynamic from solid; NaCl at pH 4.5 + PEG/EtOH/TRIS 10 mM, pH 9.0 (50-fold dilution); actual pH 7.89; 24 hours ambient
reported.property: solubility at 24 h (µg/mL)
Entry rule: numbers only, all in µg/mL.

response.value for COc1ccc(Cl)cc1C(=O)NCCc1ccc(S(=O)(=O)NC(=O)NC2CCCCC2)cc1 [Glibenclamide] (field: solubility at 24 h) = 150

---

assay: physchem; conditions: pH 6.6, water, Solubility
reported.property: solubility (µg/mL)
Entry rule: numbers only, all in µg/mL.

response.value for COc1ccc(Cl)cc1C(=O)NCCc1ccc(S(=O)(=O)NC(=O)NC2CCCCC2)cc1 [Glibenclamide] (field: solubility) = 70

---

assay: physchem; details: pH 5.3, aqueous buffer, Solubility
reported.property: solubility (µg/mL)
Entry rule: numbers only, all in µg/mL.

response.value for COc1ccc(Cl)cc1C(=O)NCCc1ccc(S(=O)(=O)NC(=O)NC2CCCCC2)cc1 [Glibenclamide] (field: solubility) = 10

---

assay: physchem; conditions: pH 6.2, aqueous buffer, Solubility
reported.property: solubility (µg/mL)
Entry rule: numbers only, all in µg/mL.

response.value for COc1ccc(Cl)cc1C(=O)NCCc1ccc(S(=O)(=O)NC(=O)NC2CCCCC2)cc1 [Glibenclamide] (field: solubility) = 10

---

experiment: Glibenclamide solubility at various pH in PEG 300/ethanol/meglumine buffer (Table 2, FIG. 1); format: physicochemical; settings: aqueous with cosolvent or surfactant or cyclodextrin; PEG 300/Ethanol/50 mM Meglumine 40%/10%/50% (final 25 mM); nominal pH 10.0, actual pH 7.8
reported.property: solubility (µg/mL)
Entry rule: numbers only, all in µg/mL.

response.value for COc1ccc(Cl)cc1C(=O)NCCc1ccc(S(=O)(=O)NC(=O)NC2CCCCC2)cc1 [Glibenclamide] (field: solubility) = 360

Cited source: patent US10688111B2
